- experiment notes: Stability in an aqueous solution (HPLC residual ratio)
- measurement setup: Britton-Robinson's buffer pH 7, 25° C., 24 hours
measurement kind: Peak area (mAU × sec) after 24 hours
# number only, unit mAU × sec dropped from output

The examples below pair each entry with its known result.
{"columns": ["compound", "unit of measurement", "Peak area (mAU × sec) after 24 hours"],
 "data": [
  ["CCC(O)C(C)C1OC1CC(C)(O)/C=C/C=C(\\C)C1OC(=O)CC(O)CCC(C)(O)C(OC(=O)N(C)CCN(CC)CC)/C=C/C1C (centres unmarked) [Compound 75]", "mAU × sec", 2478],
  ["CCC(O)C(C)C1OC1CC(C)(O)/C=C/C=C(\\C)C1OC(=O)CC(O)CCC(C)(O)C(OC(=O)N2CCN(C3CCCCCC3)CC2)/C=C/C1C (centres unmarked) [Compound 45]", "mAU × sec", 5024],
  ["CCC(O)C(C)C1OC1CC(C)(O)/C=C/C=C(\\C)C1OC(=O)CC(O)CCC(C)(OC)C(OC(=O)N2C[C@@H]3C[C@H]2CN3CC)/C=C/C1C (stereo in doubt) [Compound 122]", "mAU × sec", 4620],
  ["CCC(O)C(C)C1OC1CC(C)(O)/C=C/C=C(\\C)C1OC(=O)CC(O)CCC(C)(O)C(OC(=O)CCc2ccccc2)/C=C/C1C (centres unmarked) [Compound 142]", "mAU × sec", 3705],
  ["CCC(O)C(C)C1OC1CC(C)(O)/C=C/C=C(\\C)C1OC(=O)CC(O)CCC(C)(O)C(OC(=O)N2CCC(N3CCCCC3)CC2)/C=C/C1C (centres unmarked) [Compound 22]", "mAU × sec", 4514]
]}

Input line: Read the entry CCC(O)C(C)C1OC1CC(C)(O)/C=C/C=C(\C)C1OC(=O)CC(O)CCC(C)(OC)C(OC(=O)N2CCC(N3CCCCC3)CC2)/C=C/C1C (centres unmarked) [Compound 109] and write its reported Peak area (mAU × sec) after 24 hours.
Output line: 2111

Input line: Read the entry CCC(OC)C(C)C1OC1C(O)C(C)/C=C/C=C(\C)C1OC(=O)CC(O)CCC(C)(O)C(OC(C)=O)/C=C/C1C (centres unmarked) [FD895, reference compound] and write its reported Peak area (mAU × sec) after 24 hours.
Output line: 993

Input line: Read the entry CCC(O)C(C)C1OC1CC(C)(O)/C=C/C=C(\C)C1OC(=O)CC(O)CCC(C)(OC(=O)N2CCCN(CC)CC2)C(OC(C)=O)/C=C/C1C (centres unmarked) [Compound 136] and write its reported Peak area (mAU × sec) after 24 hours.
Output line: 3579

Reference source: patent US7893068B2
